Biological target: UniProt P33527
Sequence (P33527 whole entry): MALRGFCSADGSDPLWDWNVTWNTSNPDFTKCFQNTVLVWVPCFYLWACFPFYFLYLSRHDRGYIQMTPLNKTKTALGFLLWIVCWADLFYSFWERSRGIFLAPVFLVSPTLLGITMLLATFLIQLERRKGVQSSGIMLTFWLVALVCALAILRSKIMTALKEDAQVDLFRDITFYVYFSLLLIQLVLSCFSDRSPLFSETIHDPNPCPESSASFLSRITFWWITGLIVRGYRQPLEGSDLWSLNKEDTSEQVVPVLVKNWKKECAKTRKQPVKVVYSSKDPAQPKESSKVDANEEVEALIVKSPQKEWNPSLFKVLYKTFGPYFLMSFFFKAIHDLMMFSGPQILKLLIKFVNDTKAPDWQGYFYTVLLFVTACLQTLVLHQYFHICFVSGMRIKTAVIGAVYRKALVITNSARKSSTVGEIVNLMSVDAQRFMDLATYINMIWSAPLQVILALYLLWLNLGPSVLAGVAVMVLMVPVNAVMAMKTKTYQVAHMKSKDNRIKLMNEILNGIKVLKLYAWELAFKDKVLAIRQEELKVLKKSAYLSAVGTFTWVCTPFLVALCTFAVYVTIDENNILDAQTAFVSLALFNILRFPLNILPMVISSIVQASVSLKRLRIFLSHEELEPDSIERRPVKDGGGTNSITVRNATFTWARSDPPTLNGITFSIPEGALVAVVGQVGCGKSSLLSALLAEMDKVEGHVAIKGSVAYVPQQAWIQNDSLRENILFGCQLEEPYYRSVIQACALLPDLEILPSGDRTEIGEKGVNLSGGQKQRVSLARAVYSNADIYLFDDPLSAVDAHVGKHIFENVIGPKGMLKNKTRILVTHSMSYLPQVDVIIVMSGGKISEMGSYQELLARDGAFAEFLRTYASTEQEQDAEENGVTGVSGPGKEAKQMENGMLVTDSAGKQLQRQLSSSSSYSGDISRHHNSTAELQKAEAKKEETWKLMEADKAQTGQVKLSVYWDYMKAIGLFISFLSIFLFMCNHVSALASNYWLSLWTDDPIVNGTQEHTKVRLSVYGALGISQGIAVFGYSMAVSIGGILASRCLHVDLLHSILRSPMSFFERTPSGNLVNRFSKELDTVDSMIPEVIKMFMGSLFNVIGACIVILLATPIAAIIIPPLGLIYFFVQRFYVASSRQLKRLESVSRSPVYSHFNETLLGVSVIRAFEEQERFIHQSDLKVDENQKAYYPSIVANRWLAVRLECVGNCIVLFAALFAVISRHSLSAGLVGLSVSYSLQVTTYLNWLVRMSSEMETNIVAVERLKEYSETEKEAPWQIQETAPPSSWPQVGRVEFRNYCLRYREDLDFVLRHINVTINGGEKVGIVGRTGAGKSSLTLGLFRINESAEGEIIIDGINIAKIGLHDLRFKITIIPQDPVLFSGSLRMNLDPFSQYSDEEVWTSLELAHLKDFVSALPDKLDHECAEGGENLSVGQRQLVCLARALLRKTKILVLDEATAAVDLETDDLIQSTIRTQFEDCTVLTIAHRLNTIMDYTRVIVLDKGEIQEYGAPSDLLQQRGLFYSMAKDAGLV
Test: in vitro
Conditions: not told
Recorded Endpoint: efflux ratio
The reply should be a number, written without any unit.

Can you share its efflux ratio? I mean this molecule: `CC(=O)N[C@]12CCC(C)(C)C[C@H]1[C@H]1C(=O)C=C3[C@@]4(C)C=C(C#N)C(=O)C(C)(C)[C@@H]4CC[C@@]3(C)[C@]1(C)CC2` 10

Can you share its efflux ratio? I mean this molecule: `CC1(C)CC[C@]2(NC(=O)C(F)(F)F)CC[C@]3(C)[C@H](C(=O)C=C4[C@@]5(C)C=C(C#N)C(=O)C(C)(C)[C@@H]5CC[C@]43C)[C@@H]2C1` 11.2

Can you share its efflux ratio? I mean this molecule: `CCC(=O)N[C@]12CCC(C)(C)C[C@H]1[C@H]1C(=O)C=C3[C@@]4(C)C=C(C#N)C(=O)C(C)(C)[C@@H]4CC[C@@]3(C)[C@]1(C)CC2` 57.1

Can you share its efflux ratio? I mean this molecule: `CC1(C)CC[C@]2(NC(=O)CC(F)(F)F)CC[C@]3(C)[C@H](C(=O)C=C4[C@@]5(C)C=C(C#N)C(=O)C(C)(C)[C@@H]5CC[C@]43C)[C@@H]2C1` 56.5

----------
Test: Plasma protein binding (ultracentrifugation), mouse
Recorded Endpoint: fraction unbound

Can you share its fraction unbound? I mean this molecule: `CC1(C)CC[C@]2(NC(=O)C(C)(F)F)CC[C@]3(C)[C@H](C(=O)C=C4[C@@]5(C)C=C(C#N)C(=O)C(C)(C)[C@@H]5CC[C@]43C)[C@@H]2C1` 0.07

----------
Provide the recorded concentration at 6 h for the entries that follow.
Assay: Distribution into mouse tissues after PO QD×3
Format: in vivo
Details: whole blood, mice PO QD×3 25 mg/kg, 6 h after last dose, semi-quantitative, read-out: Drug content, Whole Blood
Give a bare numeral; the unit nM is implied.

Can you share its concentration at 6 h? I mean this compound: CCNC(=O)[C@]12CCC(C)(C)C[C@H]1[C@H]1C(=O)C=C3[C@@]4(C)C=C(C#N)C(=O)C(C)(C)[C@@H]4CC[C@@]3(C)[C@]1(C)CC2 [RTA 405, reference compound] 1160

Can you share its concentration at 6 h? I mean this compound: CC1(C)CC[C@]2(NC(=O)C(C)(F)F)CC[C@]3(C)[C@H](C(=O)C=C4[C@@]5(C)C=C(C#N)C(=O)C(C)(C)[C@@H]5CC[C@]43C)[C@@H]2C1 [RTA 408] 679

----------
Molecular target: CYP2C9 (Homo sapiens, UniProt P11712)
Sequence (P11712 whole entry): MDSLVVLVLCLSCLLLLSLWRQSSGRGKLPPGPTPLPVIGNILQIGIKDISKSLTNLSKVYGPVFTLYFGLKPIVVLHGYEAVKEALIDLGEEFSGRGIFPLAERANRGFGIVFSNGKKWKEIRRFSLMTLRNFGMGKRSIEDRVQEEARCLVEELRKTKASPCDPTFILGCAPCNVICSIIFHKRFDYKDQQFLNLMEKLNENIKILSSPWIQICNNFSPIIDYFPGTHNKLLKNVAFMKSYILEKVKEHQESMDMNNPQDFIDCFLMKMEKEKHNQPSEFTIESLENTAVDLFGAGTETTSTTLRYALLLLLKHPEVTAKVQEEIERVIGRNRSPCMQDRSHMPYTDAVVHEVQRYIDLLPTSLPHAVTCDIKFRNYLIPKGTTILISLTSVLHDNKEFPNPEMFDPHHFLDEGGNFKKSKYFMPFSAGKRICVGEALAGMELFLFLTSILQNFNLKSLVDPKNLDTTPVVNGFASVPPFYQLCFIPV
Experiment: CYP450 inhibition in pooled human liver microsomes, CYP2C9
Type: in vitro ADME
Details: highest concentration tested (3 μM)
Recorded Endpoint: inhibition at 3 µM

Request: inhibition at 3 µM, test system CYP2C9 (Homo sapiens, UniProt P11712), entry CC1(C)CC[C@]2(NC(=O)C(C)(F)F)CC[C@]3(C)[C@H](C(=O)C=C4[C@@]5(C)C=C(C#N)C(=O)C(C)(C)[C@@H]5CC[C@]43C)[C@@H]2C1 [RTA 408] < 50%

----------
Experiment: Distribution into mouse tissues after PO QD×3
Format: in vivo
Settings: liver, mice PO QD×3 25 mg/kg, 6 h after last dose, semi-quantitative, read-out: Drug content, Liver
Provide the recorded concentration at 6 h for the entries that follow.
Give a bare numeral; the unit nM is implied.

Can you share its concentration at 6 h? I mean this molecule: CCNC(=O)[C@]12CCC(C)(C)C[C@H]1[C@H]1C(=O)C=C3[C@@]4(C)C=C(C#N)C(=O)C(C)(C)[C@@H]4CC[C@@]3(C)[C@]1(C)CC2 [RTA 405, reference compound] 1140

Can you share its concentration at 6 h? I mean this molecule: `CC1(C)CC[C@]2(NC(=O)C(C)(F)F)CC[C@]3(C)[C@H](C(=O)C=C4[C@@]5(C)C=C(C#N)C(=O)C(C)(C)[C@@H]5CC[C@]43C)[C@@H]2C1` 985

----------
Assay: Oral pharmacokinetics, statements pooled over mice, rats, and monkeys
Assay type: in vivo
Details: mouse, rat, monkey, plasma; after oral administration; read-out: Apparent terminal half-life
Recorded Endpoint: half-life

Can you share its half-life? I mean this compound: `CC1(C)CC[C@]2(NC(=O)C(C)(F)F)CC[C@]3(C)[C@H](C(=O)C=C4[C@@]5(C)C=C(C#N)C(=O)C(C)(C)[C@@H]5CC[C@]43C)[C@@H]2C1` 6 to 26 h

----------
Sequence of the target: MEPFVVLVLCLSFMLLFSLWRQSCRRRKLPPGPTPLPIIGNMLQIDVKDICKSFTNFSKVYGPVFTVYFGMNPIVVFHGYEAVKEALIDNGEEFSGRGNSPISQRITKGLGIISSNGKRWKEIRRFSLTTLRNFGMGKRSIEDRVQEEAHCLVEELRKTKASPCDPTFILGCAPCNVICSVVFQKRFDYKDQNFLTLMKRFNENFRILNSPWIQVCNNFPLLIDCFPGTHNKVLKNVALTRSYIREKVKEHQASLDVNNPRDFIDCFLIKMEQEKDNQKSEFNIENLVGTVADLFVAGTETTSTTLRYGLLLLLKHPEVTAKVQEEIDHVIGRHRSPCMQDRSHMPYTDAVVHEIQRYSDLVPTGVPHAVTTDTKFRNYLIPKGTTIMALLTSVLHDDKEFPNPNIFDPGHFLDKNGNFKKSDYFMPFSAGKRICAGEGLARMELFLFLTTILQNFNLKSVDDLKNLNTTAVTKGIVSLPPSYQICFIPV
Recorded Endpoint: Ki

Can you share its Ki? I mean this molecule: CC1(C)CC[C@]2(NC(=O)C(C)(F)F)CC[C@]3(C)[C@H](C(=O)C=C4[C@@]5(C)C=C(C#N)C(=O)C(C)(C)[C@@H]5CC[C@]43C)[C@@H]2C1 [RTA 408] ~0.5 µM

----------
Provide the recorded concentration at 6 h for the entries that follow.
Test: Distribution into mouse tissues after PO QD×3
Assay type: in vivo
Details: plasma, mice PO QD×3 25 mg/kg, 6 h after last dose, semi-quantitative, read-out: Drug content, Plasma
Give a bare numeral; the unit nM is implied.

Can you share its concentration at 6 h? I mean this compound: CCNC(=O)[C@]12CCC(C)(C)C[C@H]1[C@H]1C(=O)C=C3[C@@]4(C)C=C(C#N)C(=O)C(C)(C)[C@@H]4CC[C@@]3(C)[C@]1(C)CC2 [RTA 405, reference compound] 130

Can you share its concentration at 6 h? I mean this compound: CC1(C)CC[C@]2(NC(=O)C(C)(F)F)CC[C@]3(C)[C@H](C(=O)C=C4[C@@]5(C)C=C(C#N)C(=O)C(C)(C)[C@@H]5CC[C@]43C)[C@@H]2C1 [RTA 408] 51

----------
Provide the recorded concentration at 6 h for the entries that follow.
Assay: Distribution into mouse tissues after PO QD×3
Type: in vivo
Settings: brain, mice PO QD×3 25 mg/kg, 6 h after last dose, semi-quantitative, read-out: Drug content, Brain
Give a bare numeral; the unit nM is implied.

Can you share its concentration at 6 h? I mean this compound: CCNC(=O)[C@]12CCC(C)(C)C[C@H]1[C@H]1C(=O)C=C3[C@@]4(C)C=C(C#N)C(=O)C(C)(C)[C@@H]4CC[C@@]3(C)[C@]1(C)CC2 [RTA 405, reference compound] 93

Can you share its concentration at 6 h? I mean this compound: CC1(C)CC[C@]2(NC(=O)C(C)(F)F)CC[C@]3(C)[C@H](C(=O)C=C4[C@@]5(C)C=C(C#N)C(=O)C(C)(C)[C@@H]5CC[C@]43C)[C@@H]2C1 [RTA 408] 1080

----------
Experiment: Distribution into mouse tissues after PO QD×3
Type: in vivo
Details: kidney, mice PO QD×3 25 mg/kg, 6 h after last dose, semi-quantitative, read-out: Drug content, Kidney
Protocol: Semi-quantitative analysis of drug content was performed.
Recorded Endpoint: concentration at 6 h (nM)
Give a bare numeral; the unit nM is implied.

Can you share its concentration at 6 h? I mean this compound: CC1(C)CC[C@]2(NC(=O)C(C)(F)F)CC[C@]3(C)[C@H](C(=O)C=C4[C@@]5(C)C=C(C#N)C(=O)C(C)(C)[C@@H]5CC[C@]43C)[C@@H]2C1 [RTA 408] 1600

Can you share its concentration at 6 h? I mean this compound: CCNC(=O)[C@]12CCC(C)(C)C[C@H]1[C@H]1C(=O)C=C3[C@@]4(C)C=C(C#N)C(=O)C(C)(C)[C@@H]4CC[C@@]3(C)[C@]1(C)CC2 [RTA 405, reference compound] 2360

----------
Assay: Plasma protein binding (ultracentrifugation), monkey
Recorded Endpoint: fraction unbound
The reply should be a number, written without any unit.

Can you share its fraction unbound? I mean this molecule: `CC1(C)CC[C@]2(NC(=O)C(C)(F)F)CC[C@]3(C)[C@H](C(=O)C=C4[C@@]5(C)C=C(C#N)C(=O)C(C)(C)[C@@H]5CC[C@]43C)[C@@H]2C1` 0.05

Numbers sourced from patent US9701709B2.
